Target: AHR (Homo sapiens, UniProt P35869)
Sequence (P35869 11-848): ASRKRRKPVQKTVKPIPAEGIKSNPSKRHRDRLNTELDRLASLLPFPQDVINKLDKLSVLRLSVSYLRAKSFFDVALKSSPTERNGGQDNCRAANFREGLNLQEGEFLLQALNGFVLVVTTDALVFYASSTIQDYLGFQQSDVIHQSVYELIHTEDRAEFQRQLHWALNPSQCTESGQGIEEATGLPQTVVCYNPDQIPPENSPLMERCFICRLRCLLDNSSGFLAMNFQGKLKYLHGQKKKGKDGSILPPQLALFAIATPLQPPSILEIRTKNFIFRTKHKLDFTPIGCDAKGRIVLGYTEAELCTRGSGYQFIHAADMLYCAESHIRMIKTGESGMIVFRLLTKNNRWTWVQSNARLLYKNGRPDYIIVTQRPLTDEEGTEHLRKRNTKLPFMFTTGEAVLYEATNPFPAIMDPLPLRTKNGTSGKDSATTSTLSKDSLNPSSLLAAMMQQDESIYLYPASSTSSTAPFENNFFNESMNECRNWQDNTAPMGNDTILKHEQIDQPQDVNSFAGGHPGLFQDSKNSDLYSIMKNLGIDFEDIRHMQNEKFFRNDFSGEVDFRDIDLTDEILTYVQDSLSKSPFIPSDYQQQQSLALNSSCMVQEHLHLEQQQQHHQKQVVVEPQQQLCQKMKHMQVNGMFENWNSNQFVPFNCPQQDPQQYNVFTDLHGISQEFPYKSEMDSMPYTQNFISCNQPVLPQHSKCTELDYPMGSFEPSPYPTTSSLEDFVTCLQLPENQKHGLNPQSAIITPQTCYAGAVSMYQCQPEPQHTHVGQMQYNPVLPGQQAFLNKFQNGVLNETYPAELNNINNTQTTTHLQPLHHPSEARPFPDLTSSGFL
Test: In vitro assay 1: antagonism in human cell line (transactivation assay, U87 cells prestimulated with kynurenic acid, DRE firefly luciferase reporter)
Format: cell-based
Parameters: host or cells: U87 glioblastoma cells, stably transfected with DRE firefly luciferase and renilla reporter constructs
Conditions: 150 uM kynurenic acid, 20 hours, read-out: Assay 1: AHR-luc Hum Antagonism IC50
Method: Transactivation Assay in Human Cell Line (In Vitro Assays 1 and 2) Transactivation assays were carried out in U87 glioblastoma cells (ATCC) endogenously expressing AHR. In addition the cells were stably transfected with an AHR inducible firefly luciferase reporter gene construct that carried AHR-binding sites (DRE) in its promoter and a renilla reporter gene construct with constitutively active promoter. […]
Could you mark each record t if its IC50 falls strictly under 80 nM, and f if it equals or exceeds it?

> print(dat)
                                   compound  label.class
1  O=C(NC(CO)C1CC1)c1cc(-c2ccc(Cl)cc2)nn(-c2cccnc2)c1=O (single isomer, unassigned; (-)) [Example 92]            t
2  Cc1ccc(-c2cc(C(=O)NCC(O)C(F)(F)F)c(=O)n(-c3cnn(C)c3)n2)cc1 (stereo not shown) [Example 10]            t
3  O=C(N[C@H](CO)C(F)(F)F)c1cc(-c2ccc(Cl)cc2)nn(-c2cnn(C3CCC3)c2)c1=O            f
4  C[C@H](NC(=O)c1cc(-c2ccc(Cl)cc2)nn(-c2cn[nH]c2)c1=O)C(C)(C)O            f
5  O=C(N[C@H]1COC[C@H]1O)c1cc(-c2ccc(C(F)F)nc2)nn(-c2cccnc2)c1=O (single isomer, unassigned) [Example 184]            f
6  O=C(NCC1(O)CCC1)c1cc(-c2ccc(C(F)(F)F)cc2)nn(-c2cnsc2)c1=O            t

---

molecular target: AHR (Homo sapiens, UniProt P35869); assay: In vitro assay 1: antagonism in human cell line (transactivation assay, U87 cells prestimulated with kynurenic acid, DRE firefly luciferase reporter); format: cell-based; parameters: host or cells: U87 glioblastoma cells, stably transfected with DRE firefly luciferase and renilla reporter constructs; conditions: 150 uM kynurenic acid, 20 hours, read-out: Assay 1: AHR-luc Hum Antagonism IC50
Could you mark each record criterion met if its IC50 falls strictly under 20 nM, and criterion not met if it equals or exceeds it?

> print(dat)
                                   compound        label.class
1  CC(C)(O)CNC(=O)c1cc(-c2ccc(C(F)(F)F)cc2)nn(-c2cn[nH]c2)c1=O  criterion not met
2  C[C@@H](CO)NC(=O)c1cc(-c2ccc(C(F)F)nc2)nn(-c2cccnc2)c1=O  criterion not met
3  CC(C)(O)CNC(=O)c1cc(-c2ccc(Cl)cc2)nn(-c2cncc(F)c2)c1=O  criterion not met
4  C[C@@H](CO)NC(=O)c1cc(-c2ccc(Cl)cc2)nn(-c2cncc(Cl)c2)c1=O  criterion not met
5  O=C(NCC(O)C(F)F)c1cc(-c2ccc(C(F)(F)F)cc2)nn(-c2cccnc2)c1=O (single isomer, unassigned; (-)) [Example 230]      criterion met
6  CC(NC(=O)c1cc(-c2ccc(Cl)cc2)nn(-c2cccnc2)c1=O)C(O)C(F)(F)F (single isomer, unassigned) [Example 299]      criterion met
